# Protocol Description: Pharmacokinetics in cynomolgus monkeys
# Format: in vivo, monkey
# Particulars: monkey, in vivo; cynomolgus monkeys, PO 5 mg/kg suspension; read-out: T1/2 (converted)

{"Smiles Text": "C[C@H](Nc1ncnc2[nH]cnc12)c1cc2cccc(Cl)c2c(=O)n1-c1ccccc1", "half-life / h": 5.4}

###

# Tested on: Human T-cell
# Protocol Description: Human T-cell proliferation
# Format: cell-based

{"Compound": "C[C@H](Nc1ncnc2[nH]cnc12)c1cc2cccc(Cl)c2c(=O)n1-c1ccccc1 [Compound 292]", "EC50 / nM": 9.5}

###

# Protocol Description: Pharmacokinetics in cynomolgus monkeys
# Format: in vivo, monkey
# Particulars: monkey, in vivo; cynomolgus monkeys, IV 1 mg/kg

{"Smiles Text": "C[C@H](Nc1ncnc2[nH]cnc12)c1cc2cccc(Cl)c2c(=O)n1-c1ccccc1", "clearance [mL/min/kg]": 7.17}

###

# Protocol Description: Clinical study in healthy adult subjects: pharmacokinetics
# Assay type: in vivo, human
# Particulars: human, plasma, single oral dose 2 mg, mean (%CV)
Recorded Endpoint: AUC(0-inf) (ng·h/mL)

{"Smiles Text": "C[C@H](Nc1ncnc2[nH]cnc12)c1cc2cccc(Cl)c2c(=O)n1-c1ccccc1", "Recorded Endpoint": "AUC(0-inf)", "Result Number": 296}

###

# Protocol Description: Clinical study in healthy adult subjects: pharmacokinetics
# Assay type: in vivo, human
# Particulars: human, plasma, single oral dose 1 mg, mean (%CV)

{"Compound": "C[C@H](Nc1ncnc2[nH]cnc12)c1cc2cccc(Cl)c2c(=O)n1-c1ccccc1 [Compound 292]", "AUC(0-inf) [ng·h/mL]": 151}

###

# Tested on: B cell
# Protocol Description: B cell proliferation
# Assay type: cell-based
Examples of molecules with documented EC50 follow.

{"Molecule": "Cc1cccc2cc(C(C)Nc3ncnc4[nH]cnc34)n(C3CCC3)c(=O)c12 (stereo not shown) [Compound 215]", "EC50": "< 100 nM"}
{"Molecule": "Cc1ccccc1-n1c(Cn2nc(-c3ccc4nc(N)ncc4c3)c3c(N)ncnc32)cc2cccc(C)c2c1=O [Compound 150]", "EC50": "< 100 nM"}
{"Molecule": "Cc1cccc2cc(Cn3nc(-c4ccc(O)c(F)c4)c4c(N)ncnc43)n(-c3ccccc3F)c(=O)c12 [Compound 29]", "EC50": "< 1000 nM"}
{"Molecule": "Cc1cccc2cc([C@H](C)Nc3ncnc4[nH]nc(C#N)c34)n(-c3ccccc3)c(=O)c12 [Compound 255]", "EC50": "< 100 nM"}
{"Molecule": "Cc1cccc2cc(Cn3nc(-c4cccc(O)c4)c4c(N)ncnc43)n(-c3ccccc3)c(=O)c12 [Compound 146]", "EC50": "< 100 nM"}
{"Molecule": "Cc1ccncc1-n1c(Cn2nc(I)c3c(N)ncnc32)cc2cccc(C)c2c1=O [Compound 78]", "EC50": "< 1000 nM"}
{"Molecule": "Cc1cccc2cc(C(C)Nc3ncnc4[nH]cnc34)n(-c3ccccc3)c(=O)c12 (stereo not shown) [Compound 210]", "EC50": "< 100 nM"}
{"Molecule": "Cc1ccccc1-n1c(Cn2nc(-c3ccc4nc(N)oc4c3)c3c(N)ncnc32)cc2cccc(C)c2c1=O [Compound 243]", "EC50": "< 1000 nM"}
{"Molecule": "Cc1cccc2cc(Cn3nc(-c4cn[nH]c4)c4c(N)ncnc43)n(-c3ccccc3Cl)c(=O)c12 [Compound 188]", "EC50": "< 100 nM"}
{"Molecule": "Cc1cccnc1-n1c(Cn2nc(Br)c3c(N)ncnc32)cc2cccc(C)c2c1=O [Compound 17]", "EC50": "< 100 nM"}
{"Molecule": "Cc1ccccc1-n1c(Cn2nc(-c3cccc(O)c3)c3c(N)ncnc32)cc2ccccc2c1=O [Compound 51]", "EC50": "< 1000 nM"}
{"Molecule": "COc1ccc(-c2nn(Cc3cc4cccc(C)c4c(=O)n3-c3ccccc3F)c3ncnc(N)c23)cc1OC [Compound 47]", "EC50": "< 1000 nM"}
{"Molecule": "CCC(Nc1ncnc2[nH]cnc12)c1cc2cccc(C)c2c(=O)n1C1CCC1 (stereo not shown) [Compound 212]", "EC50": "< 1000 nM"}
{"Molecule": "Cc1cccc2cc(Cn3nc(-c4cc(O)cc(F)c4)c4c(N)ncnc43)n(-c3ccccc3)c(=O)c12 [Compound 147]", "EC50": "< 100 nM"}
{"Molecule": "Cc1cccc2cc(Cn3cnc4c(N)ncnc43)n(-c3ccccc3F)c(=O)c12 [Compound 1]", "EC50": "< 10000 nM"}
{"Molecule": "Cc1cccc2cc(Cn3nc(I)c4c(N)ncnc43)n(C)c(=O)c12 [Compound 107]", "EC50": "< 1000 nM"}
{"Molecule": "CCC(Nc1ncnc2[nH]cnc12)c1cc2ccccc2c(=O)n1-c1ccccc1 (stereo not shown) [Compound 221]", "EC50": "< 100 nM"}
{"Molecule": "Cc1cccc2cc(Cn3nc(-c4cc(O)cc(F)c4)c4c(N)ncnc43)n(C3CCCCC3)c(=O)c12 [Compound 110]", "EC50": "< 1000 nM"}
{"Molecule": "Cc1cccc2cc([C@H](C)Nc3ncnc4[nH]nc(C(N)=O)c34)n(-c3ccccc3)c(=O)c12 [Compound 256]", "EC50": "< 100 nM"}
{"Molecule": "Cc1ccccc1-n1c(Cn2nc(C#C[C@H](C)O)c3c(N)ncnc32)cc2cccc(C)c2c1=O [Compound 85]", "EC50": "< 1000 nM"}
{"Molecule": "Cc1ccccc1-n1c(Cn2nc(-c3ccc(O)c(F)c3)c3c(N)ncnc32)cc2cccc(C)c2c1=O [Compound 30]", "EC50": "< 1000 nM"}
{"Molecule": "Cc1cccc2cc(Cn3nc(-c4cc(O)cc(F)c4)c4c(N)ncnc43)n(C)c(=O)c12 [Compound 125]", "EC50": "< 100 nM"}
{"Molecule": "Cc1cccc2cc(Cn3nc(-c4cc(O)cc(F)c4)c4c(N)ncnc43)n(-c3ccccc3C(C)C)c(=O)c12 [Compound 95]", "EC50": "< 100 nM"}
{"Molecule": "Cc1cccc2cc(Cn3nc(-c4cccc(O)c4)c4c(N)ncnc43)n(C3CC3)c(=O)c12 [Compound 102]", "EC50": "< 100 nM"}
{"Molecule": "Cc1cccc2cc([C@H](C)Nc3nc(Cl)nc4[nH]cnc34)n(-c3ccccc3)c(=O)c12 [Compound 244]", "EC50": "< 100 nM"}
{"Molecule": "Cc1ccccc1-n1c(Cn2nc(C(=O)NO)c3c(N)ncnc32)cc2cccc(C)c2c1=O [Compound 300]", "EC50": "< 100 nM"}
{"Molecule": "Cc1ccccc1-n1c(Cn2nc(CF)c3c(N)ncnc32)cc2cccc(C)c2c1=O [Compound 310]", "EC50": "< 100 nM"}
{"Molecule": "Cc1cccc2cc(Cn3nc(-c4ccc(Cl)c(O)c4)c4c(N)ncnc43)n(C(C)C)c(=O)c12 [Compound 123]", "EC50": "< 100 nM"}
{"Molecule": "CC(Nc1ncnc2[nH]cnc12)c1cc2ccccc2c(=O)n1-c1ccccc1 (stereo not shown) [Compound 220]", "EC50": "< 100 nM"}
{"Molecule": "Cc1ccccc1-n1c(Cn2nc(C#N)c3c(N)ncnc32)cc2cccc(C)c2c1=O [Compound 170]", "EC50": "< 100 nM"}
{"Molecule": "Cc1cccc2cc(Cn3nc(-c4ccc5oc(N)nc5c4)c4c(N)ncnc43)n(C3CC3)c(=O)c12 [Compound 201]", "EC50": "< 100 nM"}

###

# Tested on: B cell
# Protocol Description: B cell proliferation
# Type: cell-based
pEC50: −log10 of the molar value.
Recorded Endpoint: pEC50

{"Molecule": "Cc1cccc2cc(Cn3nc(-c4ccc5nc(N)[nH]c5c4)c4c(N)ncnc43)n(-c3ccccc3)c(=O)c12 [Compound 302]", "Target Or Test System": "B cell", "Result": "> 7.00"}
{"Molecule": "Cc1cccc2cc(Cn3nc(-c4ccc(F)c(O)c4)c4c(N)ncnc43)n(C(C)C)c(=O)c12 [Compound 67]", "Target Or Test System": "B cell", "Result": "> 7.00"}
{"Molecule": "C=Cc1nn(Cc2cc3cccc(C)c3c(=O)n2-c2ccccc2C)c2ncnc(N)c12 [Compound 180]", "Target Or Test System": "B cell", "Result": "> 7.00"}
{"Molecule": "Cc1cccc2cc(Cn3nc(I)c4c(N)ncnc43)n(-c3ccccc3Cl)c(=O)c12 [Compound 76]", "Target Or Test System": "B cell", "Result": "> 6.00"}

###

# Protocol Description: Clinical study in healthy adult subjects: pharmacokinetics
# Type: in vivo, human
# Particulars: human, plasma, single oral dose 1 mg, mean (%CV)

{"Smiles Text": "C[C@H](Nc1ncnc2[nH]cnc12)c1cc2cccc(Cl)c2c(=O)n1-c1ccccc1", "Units Text": "ng/mL", "Cmax": 43.4}
